System: HL60 cells
Protocol summary: Anti-proliferation on HL60 cells (CellTiter-Glo, 3 days)
Type: cell-based
Condition info: Homo sapiens, HL-60, 72 h, 3 days incubation, CTG luminescence, IC50 by XLfit, read-out: HL60 cells Proliferation inhibitory activity
Outcome measure: IC50 (nM)
Numbers only, in nM.

N#Cc1cc(-c2cccc(Cl)c2)ccc1N1CCC(CNCc2ccc3c(c2)CN(C2CCC(=O)NC2=O)C3=O)CC1 (stereo not shown) | 1.5
O=C1CCC(N2Cc3cc(NC(=O)CC4CCN(c5cnc(-c6cccc7ccccc67)nc5)CC4)ccc3C2=O)C(=O)N1 (stereo not shown) | 0.3
O=C1CCC(N2Cc3cc(CNCC4CCN(c5ncc(-c6cccc(F)c6)cn5)CC4)ccc3C2=O)C(=O)N1 (stereo not shown) | 2

Recorded result, O=C(CN1CCC(CC(=O)Nc2ccc3c(c2)CN(C2CCC(=O)NC2=O)C3=O)CC1)NCCc1cccc2ccccc12 (stereo not shown) , IC50: 7.4
